measurement-target: T1, recombinant His-tagged human FRα (human, UniProt P15328 25-234)
T1 construct: Bought protein; also called hFRα; FRα-HIS
T1 sequence (P15328 25-234 limits assumed): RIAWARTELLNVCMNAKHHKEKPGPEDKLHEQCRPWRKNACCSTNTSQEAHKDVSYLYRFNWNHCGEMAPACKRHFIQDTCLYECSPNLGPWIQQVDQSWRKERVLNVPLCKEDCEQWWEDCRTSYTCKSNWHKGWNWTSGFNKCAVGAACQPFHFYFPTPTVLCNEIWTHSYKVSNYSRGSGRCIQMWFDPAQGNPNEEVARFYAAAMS
protocol-notes: BLI, n=2
observed-property: Kd (nM)
Express the result in nM but write the number alone.

### Prompt Could you share which Kd value was measured for v29681 (scFv, One-armed, scFv at the C-terminus of Het FcA (GGGG linker); also called C-term VH-(long)-VL) scFv: EVQLVESGGGLVQPGGSLRLSCAASGFTISNNYYMCWVRQAPGKGLEWIACIYGGISGRTYYADSAKGRFTISKDSSNTVYLQMNSLRAEDTAVYYCVRGYVGTSNLWGQGTLVTVSSGGSGGGSGGGSGGGSGGGSGDIQMTQSPSSLSASVGDRVTITCQASQSIYSSLAWYQQKPGKAPKLLIYDASHLASGVPSRFSGSRYGTDFTLTISSVQPEDFATYYCQGGWYSSAATYVPNTFGGGTKVEVK ?
### Response 2.6

### Prompt Report Kd for v29675 (antibody, V domains shown, One-armed antibody, humanized 8K22 (H4L3 of v23807) Fab on a heterodimeric IgG1 Fc; also called N-term Parent Fab; Parent Fab antibody) VH: EVQLVESGGGLVQPGGSLRLSCAASGFTISNNYYMCWVRQAPGKGLEWIACIYGGISGRTYYADSAKGRFTISKDSSNTVYLQMNSLRAEDTAVYYCVRGYVGTSNLWGQGTLVTVSS VL: DIQMTQSPSSLSASVGDRVTITCQASQSIYSSLAWYQQKPGKAPKLLIYDASHLASGVPSRFSGSRYGTDFTLTISSVQPEDFATYYCQGGWYSSAATYVPNTFGGGTKVEVK please.
### Response 4.1

### Prompt // query Kd value for entry v29684 (scFv, One-armed, scFv at the C-terminus of Het FcA; VL-G100C and VH-G44C already in the entry; also called C-term VL-(long)-VH + disulfide) scFv: DIQMTQSPSSLSASVGDRVTITCQASQSIYSSLAWYQQKPGKAPKLLIYDASHLASGVPSRFSGSRYGTDFTLTISSVQPEDFATYYCQGGWYSSAATYVPNTFGCGTKVEVKGGSGGGSGGGSGGGSGGGSGEVQLVESGGGLVQPGGSLRLSCAASGFTISNNYYMCWVRQAPGKCLEWIACIYGGISGRTYYADSAKGRFTISKDSSNTVYLQMNSLRAEDTAVYYCVRGYVGTSNLWGQGTLVTVSS
### Response 0.88

### Prompt Which Kd reading was recorded for the binder v29678 (scFv, also called C-term VL-(short)-VH) scFv: DIQMTQSPSSLSASVGDRVTITCQASQSIYSSLAWYQQKPGKAPKLLIYDASHLASGVPSRFSGSRYGTDFTLTISSVQPEDFATYYCQGGWYSSAATYVPNTFGGGTKVEVKGGGGSGGGGSGGGGSEVQLVESGGGLVQPGGSLRLSCAASGFTISNNYYMCWVRQAPGKGLEWIACIYGGISGRTYYADSAKGRFTISKDSSNTVYLQMNSLRAEDTAVYYCVRGYVGTSNLWGQGTLVTVSS ?
### Response 5.1

Data provenance: patent US20230052369A1
